- Tested target: ABCB1 (P-glycoprotein) efflux pump (Homo sapiens)
- Sequence (P08183 whole entry): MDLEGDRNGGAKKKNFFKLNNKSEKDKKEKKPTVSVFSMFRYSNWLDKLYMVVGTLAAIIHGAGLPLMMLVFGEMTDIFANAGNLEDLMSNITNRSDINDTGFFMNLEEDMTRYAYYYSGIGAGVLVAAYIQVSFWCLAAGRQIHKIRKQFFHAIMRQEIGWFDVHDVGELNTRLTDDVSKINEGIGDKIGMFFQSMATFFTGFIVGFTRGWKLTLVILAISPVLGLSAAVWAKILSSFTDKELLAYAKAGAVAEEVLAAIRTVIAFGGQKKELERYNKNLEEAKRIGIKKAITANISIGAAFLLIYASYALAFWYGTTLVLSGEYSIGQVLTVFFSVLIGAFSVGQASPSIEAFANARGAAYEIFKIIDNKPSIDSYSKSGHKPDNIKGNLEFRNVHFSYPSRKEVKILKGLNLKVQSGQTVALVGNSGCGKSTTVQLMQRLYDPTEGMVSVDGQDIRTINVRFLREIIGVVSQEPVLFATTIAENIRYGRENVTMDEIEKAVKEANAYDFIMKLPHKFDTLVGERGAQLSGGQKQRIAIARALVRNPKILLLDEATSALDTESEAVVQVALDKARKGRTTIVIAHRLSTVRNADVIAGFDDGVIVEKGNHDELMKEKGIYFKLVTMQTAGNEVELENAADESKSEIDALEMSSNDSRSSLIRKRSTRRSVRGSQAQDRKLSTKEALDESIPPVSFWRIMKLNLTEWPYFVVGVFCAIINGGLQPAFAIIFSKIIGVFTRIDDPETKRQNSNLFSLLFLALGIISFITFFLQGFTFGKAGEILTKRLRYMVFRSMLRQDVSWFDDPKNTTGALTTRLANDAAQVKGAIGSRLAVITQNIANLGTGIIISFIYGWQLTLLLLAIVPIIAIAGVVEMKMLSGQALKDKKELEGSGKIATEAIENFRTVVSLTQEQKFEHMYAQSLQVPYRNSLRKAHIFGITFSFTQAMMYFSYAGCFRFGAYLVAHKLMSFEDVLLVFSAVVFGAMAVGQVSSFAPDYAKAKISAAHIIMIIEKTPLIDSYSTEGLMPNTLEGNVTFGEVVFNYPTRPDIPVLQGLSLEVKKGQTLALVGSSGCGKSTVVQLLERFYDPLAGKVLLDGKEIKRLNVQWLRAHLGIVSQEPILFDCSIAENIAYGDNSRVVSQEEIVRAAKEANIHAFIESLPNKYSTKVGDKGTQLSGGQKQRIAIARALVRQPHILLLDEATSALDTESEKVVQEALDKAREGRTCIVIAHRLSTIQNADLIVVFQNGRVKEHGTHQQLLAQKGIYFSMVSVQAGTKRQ
- Method description: Rhodamine 123 uptake/retention fluorescence assay (flow cytometry) in Colo 320 cells
- Experimental context: Colo 320, 2 μM
Property measured: FAR quotient (FAR related to that of 20 μM verapamil) (%)
Only the number, expressed in %, is required.

Consider the reported FAR quotient (FAR related to that of 20 μM verapamil) for these compounds:
C1N2CN3CN1CP(C2)C3.Cc1ccc(C(C)C)cc1.F[P-](F)(F)(F)(F)F.[O-]n1ccccc1=S.[Ru+2] [complex 2]	21.3
C1N2CN3CN1CP(C2)C3.Cc1ccc(C(C)C)cc1.F[P-](F)(F)(F)(F)F.O=C(C=C([O-])C(F)(F)F)c1ccc(Cl)cc1.[Ru+2] [complex 8]	13.8
Cc1ccc(C(C)C)cc1.O=C(C=C([O-])C(F)(F)F)c1ccc(Cl)cc1.[Cl-].[Ru+2] [complex 7]	23.1
C1N2CN3CN1CP(C2)C3.Cc1ccc(C(C)C)cc1.F[P-](F)(F)(F)(F)F.[O-]n1ccc2ccccc2c1=S.[Ru+2] [complex 4]	17.0

# FAR quotient (FAR related to that of 20 μM verapamil) (compound: Cc1ccc(C(C)C)cc1.[Cl-].[O-]c1c(I)cc(Cl)c2cccnc12.[Ru+2] [complex 5] ) is 128.7
